- experimental-target: T1, human prolactin receptor (PRLR) (human, UniProt P16471 25-622)
- T1 sequence: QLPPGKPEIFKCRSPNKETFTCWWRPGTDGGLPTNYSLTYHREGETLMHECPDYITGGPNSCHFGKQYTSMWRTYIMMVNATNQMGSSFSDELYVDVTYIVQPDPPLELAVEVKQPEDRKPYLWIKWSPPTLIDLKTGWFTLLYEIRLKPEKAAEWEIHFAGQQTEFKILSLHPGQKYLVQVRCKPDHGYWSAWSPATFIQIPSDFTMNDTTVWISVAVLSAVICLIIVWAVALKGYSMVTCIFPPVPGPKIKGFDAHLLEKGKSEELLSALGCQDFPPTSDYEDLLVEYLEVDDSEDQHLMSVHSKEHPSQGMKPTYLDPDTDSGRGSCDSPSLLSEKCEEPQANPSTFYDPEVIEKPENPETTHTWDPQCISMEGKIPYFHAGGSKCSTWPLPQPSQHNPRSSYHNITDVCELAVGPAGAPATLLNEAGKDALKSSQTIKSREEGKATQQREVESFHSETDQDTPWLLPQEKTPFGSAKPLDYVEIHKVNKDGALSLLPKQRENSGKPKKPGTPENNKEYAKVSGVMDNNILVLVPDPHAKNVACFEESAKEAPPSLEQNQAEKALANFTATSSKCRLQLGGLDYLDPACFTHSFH
- test-description: cell-based or functional assay
measured-parameter: IC50, cell viability, T47D cells

A selection of reference data follows.
{"binder": "H1H6975N-DM1 (antibody, human IgG1, V domains shown, DM1 conjugated through SMCC linker; attachment residues not stated) VH: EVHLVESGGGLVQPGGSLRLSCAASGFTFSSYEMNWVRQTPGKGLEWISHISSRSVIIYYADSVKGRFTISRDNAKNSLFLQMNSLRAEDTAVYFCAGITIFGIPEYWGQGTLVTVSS VL: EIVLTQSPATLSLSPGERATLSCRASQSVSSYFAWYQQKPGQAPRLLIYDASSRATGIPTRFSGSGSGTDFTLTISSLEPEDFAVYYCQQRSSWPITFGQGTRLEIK", "measured-parameter": "IC50, cell viability, T47D cells", "assay-result": "2 nM"}
{"binder": "H1H6782P-mc-VC-PAB-MeNHC3-May (antibody, human IgG1, V domains shown, MeNHC3-May conjugated through mc-VC-PAB linker; attachment residues not stated) VH: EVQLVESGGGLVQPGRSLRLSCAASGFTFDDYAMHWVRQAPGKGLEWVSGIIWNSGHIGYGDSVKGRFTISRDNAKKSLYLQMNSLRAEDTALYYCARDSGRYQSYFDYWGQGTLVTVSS VL: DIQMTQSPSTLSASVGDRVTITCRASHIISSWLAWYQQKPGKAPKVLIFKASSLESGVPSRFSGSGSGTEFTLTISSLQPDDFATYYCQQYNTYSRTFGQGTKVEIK", "measured-parameter": "IC50, cell viability, T47D cells", "assay-result": "2 nM"}

Please fill in: IC50, cell viability, T47D cells reported for H1H6765P-DM1 (antibody, human IgG1, V domains shown, DM1 conjugated through SMCC linker; attachment residues not stated) VH: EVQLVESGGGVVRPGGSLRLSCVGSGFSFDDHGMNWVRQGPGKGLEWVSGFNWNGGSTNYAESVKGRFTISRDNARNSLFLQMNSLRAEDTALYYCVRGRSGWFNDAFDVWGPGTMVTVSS VL: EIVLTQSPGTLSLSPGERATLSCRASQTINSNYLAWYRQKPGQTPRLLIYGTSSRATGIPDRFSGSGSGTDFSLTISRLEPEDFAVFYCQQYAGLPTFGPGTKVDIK = 1 nM
